Cited source for all entries: the supplement of paper PMC7366291

Quick reference: glomerular width of the listed items.
Tested on: Danio rerio Tg(wt1b:EGFP) embryo, pronephros
Experiment: glomerular width (mean of left and right), fold change vs DMSO control; higher = wider glomerulus
Conditions: 25 µM; exposure: 24-48 hpf
Counter-ions that a name gives are not always drawn.

| compound | glomerular width |
| --- | --- |
| Nc1ccc(C(=O)NCC(=O)O)cc1 | 0.993 |
| CCn1cc(C(=O)O)c(=O)c2cc(F)c(N3CCNC(C)C3)c(F)c21 (stereo not given) [Lomefloxacin hydrochloride] | 0.974 |
| CN1CCCC(CC2c3ccccc3Sc3ccccc32)C1 (stereo not given) [Metixene hydrochloride] | 1 |
| O=C(O)c1ccccc1C(=O)Nc1ccc(S(=O)(=O)Nc2nccs2)cc1 | 1.02 |
| CN(C)CCCC1(c2ccc(F)cc2)OCc2cc(C#N)ccc21 (stereo not given) [Citalopram Hydrobromide] | 0.991 |

====

System: Danio rerio Tg(wt1b:EGFP) embryo, pronephros
Assay: glomerular width (mean of left and right), fold change vs DMSO control; higher = wider glomerulus
Conditions: 25 µM; exposure: 24-48 hpf
Where a name gives a salt, the structure may show the parent alone.
Quick reference: glomerular width of the listed items.

| compound | glomerular width |
| --- | --- |
| COc1ccc([C@@H]2Sc3ccccc3N(CCN(C)C)C(=O)[C@@H]2OC(C)=O)cc1 [Diltiazem hydrochloride] | 1.24 |
| COc1ccc(CCN(C)CCCC(C#N)(c2ccc(OC)c(OC)c2)C(C)C)cc1OC (stereo not given) [Verapamil hydrochloride] | 0.995 |
| CN(C)CCOC(=O)C(c1ccccc1)C1(O)CCCC1 (stereo not given) [Cyclopentolate hydrochloride] | 0.928 |
| Cc1ncc([N+](=O)[O-])n1CCO | 0.928 |
| Cc1ccc2c(c1)c1c3n2CCNC3CCC1 (stereo not given) [Pirlindole mesylate] | 1.07 |
| COc1cc(C(=O)NCc2ccc(OCCN(C)C)cc2)cc(OC)c1OC [Trimethobenzamide hydrochloride] | 1.05 |
| CC[C@H](C)C(=O)O[C@H]1CCC=C2C=C[C@H](C)[C@H](CC[C@@H]3C[C@@H](O)CC(=O)O3)[C@H]21 | 0.798 |
| CN1CCC(=C2c3ccccc3C=Cc3ccccc32)CC1 [Cyproheptadine hydrochloride] | 0.94 |
| COc1ccc(CC(C)NCC(O)c2ccc(O)c(NC=O)c2)cc1 (stereo not given) [Formoterol fumarate] | 0.97 |
| CC[C@H](C)[C@H](N)C1=N[C@H](C(=O)N[C@@H](CC(C)C)C(=O)N[C@H](CCC(=O)O)C(=O)N[C@H](C(=O)N[C@H]2CCCCNC(=O)[C@H](CC(N)=O)NC(=O)[C@@H](CC(=O)O)NC(=O)[C@H](Cc3cnc[nH]3)NC(=O)[C@@H](Cc3ccccc3)NC(=O)[C@H]([C@@H](C)CC)NC(=O)[C@@H](CCCN)NC2=O)[C@@H](C)CC)CS1 | 0.912 |
| O=C(CCCN1CCC(O)(c2ccc(Br)cc2)CC1)c1ccc(F)cc1 | 1.03 |
| Cc1cccc(C)c1OCC(C)N (stereo not given) [Mexiletine hydrochloride] | 0.98 |
| Cc1c(N(C)C)c(=O)n(-c2ccccc2)n1C | 1 |
| CCN(CC)CCNC(=O)COc1ccc(OC)cc1 [Mefexamide hydrochloride] | 0.916 |
| C[C@H](O)C(=O)Nc1c(I)c(C(=O)NC(CO)CO)c(I)c(C(=O)NC(CO)CO)c1I | 0.977 |
| CCCNC(C)(C)COC(=O)c1ccccc1 [Meprylcaine hydrochloride] | 0.936 |
| COc1ccc2c(c1)c(CC(=O)OCC(=O)O)c(C)n2C(=O)c1ccc(Cl)cc1 | 1.04 |
| NC(=O)NC1NC(=O)NC1=O (stereo not given) | 0.91 |
| C[C@H](CCC(=O)O)[C@H]1CC[C@H]2[C@@H]3CC[C@@H]4C[C@H](O)CC[C@]4(C)[C@H]3CC[C@]12C | 0.839 |
| CC(=O)OCC(=O)[C@@]1(O)CC[C@H]2[C@@H]3CCC4=CC(=O)CC[C@]4(C)[C@H]3[C@@H](O)C[C@@]21C [Cortisol acetate] | 1.29 |
| O=C(c1ccc(F)cc1)C1CCN(CCn2c(=O)[nH]c3ccccc3c2=O)CC1 [Ketanserin tartrate hydrate] | 0.939 |
| CC[C@H]1OC(=O)C[C@@H](O)[C@H](C)[C@@H](O[C@@H]2O[C@H](C)[C@@H](O[C@H]3C[C@@](C)(O)[C@@H](O)[C@H](C)O3)[C@H](N(C)C)[C@H]2O)[C@@H](CC=O)C[C@@H](C)C(=O)/C=C/C(C)=C/[C@@H]1CO[C@@H]1O[C@H](C)[C@@H](O)[C@@H](OC)[C@H]1OC | 0.983 |
| CS(=O)(=O)c1ccc([C@@H](O)[C@@H](CF)NC(=O)C(Cl)Cl)cc1 | 1.01 |
| CCCCCN(C)CCC(O)(P(=O)(O)O)P(=O)(O)O [Ibandronate sodium] | 1.06 |
| c1cnc(N2CCN(Cc3ccc4c(c3)OCO4)CC2)nc1 [Piribedil hydrochloride] | 0.962 |

====

System: Danio rerio Tg(wt1b:EGFP) embryo, pronephros
Assay: glomerular separation, fold change vs DMSO control; higher = glomeruli further apart (abnormal)
Settings: 25 µM; exposure: 24-48 hpf
Counter-ions that a name gives are not always drawn.
Is glomerular separation at least 1? Then T. If not, F.

| compound | assigned label |
| --- | --- |
| CN[C@H](CC(C)C)C(=O)N[C@H]1C(=O)N[C@@H](CC(N)=O)C(=O)N[C@H]2C(=O)N[C@H]3C(=O)N[C@H](C(=O)N[C@H](C(=O)O)c4cc(O)cc(O)c4-c4cc3ccc4O)[C@H](O)c3ccc(c(Cl)c3)Oc3cc2cc(c3O[C@@H]2O[C@H](CO)[C@@H](O)[C@H](O)[C@H]2O[C@H]2C[C@](C)(N)[C@H](O)[C@H](C)O2)Oc2ccc(cc2Cl)[C@H]1O [Vancomycin hydrochloride] | F |
| CCCCOc1ccc(CC(=O)NO)cc1 | T |
| CC(NCCC(c1ccccc1)c1ccccc1)c1ccccc1 (stereo unspecified) [Fendiline hydrochloride] | T |
| CN(c1nccc(=O)[nH]1)C1CCN(c2nc3ccccc3n2Cc2ccc(F)cc2)CC1 | T |
| CC(C)(C)NC(=O)[C@@H]1CN(Cc2cccnc2)CCN1C[C@@H](O)C[C@@H](Cc1ccccc1)C(=O)N[C@H]1c2ccccc2C[C@H]1O [Indinavir sulfate] | T |
| CO/N=C(\C(=O)N[C@@H]1C(=O)N2C(C(=O)O)=C(COC(C)=O)CS[C@H]12)c1csc(N)n1 [Cefotaxime sodium salt] | F |
| NNc1nncc2ccccc12 [Hydralazine hydrochloride] | T |
| COc1cc(N)c(Cl)cc1C(=O)NC1CCN(Cc2ccccc2)CC1 [Clebopride maleate] | F |
| COc1cccc(OC)c1C(=O)N[C@@H]1C(=O)N2[C@@H]1SC(C)(C)[C@@H]2C(=O)O [Methicillin sodium] | T |
| CN1CCN(CC(=O)N2c3ccccc3C(=O)Nc3cccnc32)CC1 [Pirenzepine dihydrochloride] | T |
| O=c1cc(-c2ccc(O)c(O)c2)oc2cc(O)cc(O)c12 | F |
| COc1ccc2c(c1)c(CC(=O)O)c(C)n2C(=O)c1ccc(Cl)cc1 | T |
| Clc1ccc(COC(Cn2ccnc2)c2ccc(Cl)cc2Cl)cc1 (stereo unspecified) [Econazole nitrate] | T |
| CC(C)[N+](C)(CCOC(=O)C1c2ccccc2Oc2ccccc21)C(C)C [Propantheline bromide] | T |
| COc1ccccc1Oc1c(NS(=O)(=O)c2ccc(C(C)(C)C)cc2)nc(-c2ncccn2)nc1OCCO | T |
| Nc1ccc(C(=O)O)c(O)c1 | F |
| Nc1ccc(/N=N/c2ccccc2)c(N)n1 [Phenazopyridine hydrochloride] | T |
| NC(=O)c1ncn([C@@H]2O[C@H](CO)[C@@H](O)[C@H]2O)n1 | F |
| N=C(N)NC(=N)NCCc1ccccc1 [Phenformin hydrochloride] | F |
| CC(C)(C)NC[C@H](O)c1ccc(O)c(CO)c1 [Levalbuterol hydrochloride] | F |
| CC[C@@H]1C(=O)OC[C@@H]1Cc1cncn1C [Pilocarpine nitrate] | T |
| CCCOc1cc(N)ccc1C(=O)OCCN(CC)CC [Propoxycaine hydrochloride] | F |
| O=C1C(CC[S+]([O-])c2ccccc2)C(=O)N(c2ccccc2)N1c1ccccc1 (stereo unspecified) | T |
| O=C1CCC(N2C(=O)c3ccccc3C2=O)C(=O)N1 (stereo unspecified) [Thalidomide] | F |
| C[C@@](Cc1ccc(O)c(O)c1)(NN)C(=O)O | T |
| COc1ccc(C(=O)NCc2ccc(OCCN(C)C)cc2)cc1OC [Itopride] | T |
| CN(C)CCCN1c2ccccc2Sc2ccccc21 [Promazine hydrochloride] | T |
| COC(=O)N/N=C/c1c[n+]([O-])c2ccccc2[n+]1[O-] | T |
| CCCc1cc(=O)[nH]c(=S)[nH]1 | F |
